fold change of affinity overview
# system-name: T1, Human CD137 ECD (human)
# T1 construct: also called 4-1BB
# T1 sequence (chain, as listed by the source limits assumed): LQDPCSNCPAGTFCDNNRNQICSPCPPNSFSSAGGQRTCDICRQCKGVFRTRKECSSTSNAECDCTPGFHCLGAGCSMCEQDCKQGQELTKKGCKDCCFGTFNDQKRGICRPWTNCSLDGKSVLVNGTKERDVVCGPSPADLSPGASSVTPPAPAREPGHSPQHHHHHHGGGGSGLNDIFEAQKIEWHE
# assay-explanation: single mutant vs template dBBDu183H
Reply numerically in fold, unit not repeated.

{"columns": ["binder", "readout", "reported-result"],
 "data": [
  ["H183/L072 VH A54H (antibody, name in Kabat numbering, V domains shown) VH: QVQLVESGGGLVQPGRSLRLSCAASGFTFSNAWMHWVRQAPGKGLEWVAQIKDKGNHYAAYYAPSVKGRFTISRDDSKNSIYLQMNSLKTEDTAVYYCHYVHYASASTVLPAFGVDAWGQGTTVTVSS VL: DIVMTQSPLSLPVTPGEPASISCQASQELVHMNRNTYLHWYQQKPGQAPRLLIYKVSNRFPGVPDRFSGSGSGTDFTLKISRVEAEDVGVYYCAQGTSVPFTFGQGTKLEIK", "fold change of affinity", 1],
  ["H183/L072 VH I51A (antibody, name in Kabat numbering, V domains shown) VH: QVQLVESGGGLVQPGRSLRLSCAASGFTFSNAWMHWVRQAPGKGLEWVAQAKDKGNAYAAYYAPSVKGRFTISRDDSKNSIYLQMNSLKTEDTAVYYCHYVHYASASTVLPAFGVDAWGQGTTVTVSS VL: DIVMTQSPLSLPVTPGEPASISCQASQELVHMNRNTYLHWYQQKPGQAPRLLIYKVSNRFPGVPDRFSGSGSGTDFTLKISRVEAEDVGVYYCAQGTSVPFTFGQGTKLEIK", "fold change of affinity", 0.1]
]}

// next item, fold change of affinity requested
// lookup fold change of affinity for H183/L072 VH G52cK (antibody, name in Kabat numbering, V domains shown) VH: QVQLVESGGGLVQPGRSLRLSCAASGFTFSNAWMHWVRQAPGKGLEWVAQIKDKKNAYAAYYAPSVKGRFTISRDDSKNSIYLQMNSLKTEDTAVYYCHYVHYASASTVLPAFGVDAWGQGTTVTVSS VL: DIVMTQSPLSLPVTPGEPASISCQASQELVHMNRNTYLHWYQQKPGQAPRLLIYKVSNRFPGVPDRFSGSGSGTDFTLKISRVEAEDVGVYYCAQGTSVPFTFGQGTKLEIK 0.2
